- System: HB4a c5.2 cells
- Method description: Methylene blue growth inhibition assay, HB4a c5.2
- Format: cell-based
- Stated conditions: HB4a-C5.2, 72 h; human mammary epithelial line transfected with human c-erbB2 cDNA, 3 days; read-out: HB4a c5.2 IC50 (cell growth)
pIC50: −log10 of the molar value.
Observable: pIC50

{"Item smiles": "CCCS(=O)(=O)CCNCc1ccc(-c2cc3c(Nc4ccc(OCc5cccc(F)c5)cc4)ncnc3cn2)o1", "Result value": "6.00 to 7.00"}
{"Item smiles": "O=S(=O)(CCNCc1ccc(-c2ccc3ncnc(Nc4ccc(OCc5cccc(F)c5)c(Cl)c4)c3c2)o1)c1ccccn1", "Result value": "5.00 to 6.00"}
{"Item smiles": "O=S(=O)(CCOCc1ccc(-c2ccc3ncnc(Nc4ccc(OCc5cccc(F)c5)c(Cl)c4)c3c2)o1)c1ccccc1", "Result value": "6.00 to 7.00"}
{"Item smiles": "Cn1ccnc1S(=O)(=O)CCNCc1ccc(-c2ccc3ncnc(Nc4ccc(OCc5cccc(F)c5)c(Cl)c4)c3c2)o1", "Result value": "6.00 to 7.00"}
{"Item smiles": "CCN(CCS(C)(=O)=O)Cc1ccc(-c2ccc3ncnc(Nc4ccc(OCc5cccc(F)c5)c(Cl)c4)c3c2)o1", "Result value": "6.00 to 7.00"}
{"Item smiles": "CS(=O)(=O)CCN(CC#N)Cc1ccc(-c2ccc3ncnc(Nc4ccc(OCc5cccc(F)c5)c(Cl)c4)c3c2)o1", "Result value": "6.00 to 7.00"}
{"Item smiles": "C=CS(=O)(=O)CCOCc1ccc(-c2ccc3ncnc(Nc4ccc(OCc5cccc(F)c5)c(Cl)c4)c3c2)o1", "Result value": "5.00 to 6.00"}
{"Item smiles": "CS(=O)(=O)CCNCCCc1ccc(-c2ccc3ncnc(Nc4ccc(OCc5ccccc5)c(Cl)c4)c3c2)o1", "Result value": "6.00 to 7.00"}
{"Item smiles": "CS(=O)(=O)CCN(Cc1ccccc1)Cc1ccc(-c2ccc3ncnc(Nc4ccc(OCc5cccc(F)c5)c(Cl)c4)c3c2)o1", "Result value": "5.00 to 6.00"}

---

# IC50 per record follows
- System: HB4a c5.2 cells
- Method description: Methylene blue growth inhibition assay, HB4a c5.2
- Format: cell-based
- Stated conditions: HB4a-C5.2, 72 h; human mammary epithelial line transfected with human c-erbB2 cDNA, 3 days; read-out: HB4a c5.2 IC50 (cell growth)

{"Item smiles": "CC(C)S(=O)(=O)CCNCc1ccc(-c2ccc3ncnc(Nc4ccc(OCc5cccc(F)c5)c(Cl)c4)c3c2)o1", "IC50": "100 to 1000 nM"}
{"Item smiles": "CCCS(=O)(=O)CCNCc1ccc(-c2ccc3ncnc(Nc4ccc(OCc5cccc(F)c5)c(Cl)c4)c3c2)o1", "IC50": "1000 to 10000 nM"}
{"Item smiles": "CS(=O)(=O)CCOCc1ccc(-c2ccc3ncnc(Nc4ccc(OCc5cccc(F)c5)c(Cl)c4)c3c2)o1", "IC50": "100 to 1000 nM"}
{"Item smiles": "CCCN(CCS(C)(=O)=O)Cc1ccc(-c2ccc3ncnc(Nc4ccc(OCc5cccc(F)c5)c(Cl)c4)c3c2)o1", "IC50": "100 to 1000 nM"}

---

# pIC50 per record follows
- Test target: c-erbB-4 (Homo sapiens)
- Construct: baculovirus expressed, recombinant constructs of the intracellular domains of c-erbB-2 and c-erbB-4
- Sequence (Q15303 676-1308 limits assumed): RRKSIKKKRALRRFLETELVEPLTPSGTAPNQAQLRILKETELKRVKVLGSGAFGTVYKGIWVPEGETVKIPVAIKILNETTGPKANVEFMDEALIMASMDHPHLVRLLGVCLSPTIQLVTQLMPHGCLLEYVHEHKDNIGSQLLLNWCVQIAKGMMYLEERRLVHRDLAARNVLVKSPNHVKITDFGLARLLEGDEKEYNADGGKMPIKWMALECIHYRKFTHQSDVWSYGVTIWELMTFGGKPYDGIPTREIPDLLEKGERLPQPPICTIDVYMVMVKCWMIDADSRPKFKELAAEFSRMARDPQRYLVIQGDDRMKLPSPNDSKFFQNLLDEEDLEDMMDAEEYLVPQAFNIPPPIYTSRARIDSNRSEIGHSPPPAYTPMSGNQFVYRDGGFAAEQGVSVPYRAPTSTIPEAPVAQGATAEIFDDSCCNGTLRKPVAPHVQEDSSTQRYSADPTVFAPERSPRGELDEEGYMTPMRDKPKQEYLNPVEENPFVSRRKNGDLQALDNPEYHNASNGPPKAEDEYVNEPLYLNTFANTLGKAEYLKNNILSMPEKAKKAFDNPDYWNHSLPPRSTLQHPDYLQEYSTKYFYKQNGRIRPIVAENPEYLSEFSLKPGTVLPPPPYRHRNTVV
- Method description: Substrate phosphorylation assay, c-erbB-4
- Stated conditions: recombinant intracellular domain, baculovirus expressed; ATP and peptide at Km; read-out: ErbB4 IC50
- Method: The substrate phosphorylation assays use baculovirus expressed, recombinant constructs of the intracellular domains of c-erbB-2 and c-erbB-4 that are constitutively active and EGFr isolated from solubilised A431 cell membranes. […] The plate is washed and level of phosphotyrosine on the peptide is determined using a Europium-labelled antiphosphotyrosine antibody and quantified with a time-resolved fluorescence technique. […]
pIC50: −log10 of the molar value.
Observable: pIC50

{"Compound": "CCCS(=O)(=O)CCNCc1ccc(-c2cc3c(Nc4ccc(OCc5cccc(F)c5)cc4)ncnc3cn2)o1 [Example 6]", "Observable": "pIC50", "Result value": "5.00 to 6.00"}
{"Compound": "CS(=O)(=O)CCN(Cc1ccccc1)Cc1ccc(-c2ccc3ncnc(Nc4ccc(OCc5cccc(F)c5)c(Cl)c4)c3c2)o1 [Example 16]", "Observable": "pIC50", "Result value": "6.00 to 7.00"}
{"Compound": "CCN(CCS(C)(=O)=O)Cc1ccc(-c2ccc3ncnc(Nc4ccc(OCc5cccc(F)c5)c(Cl)c4)c3c2)o1 [Example 17]", "Observable": "pIC50", "Result value": "6.00 to 7.00"}
{"Compound": "Cn1ccnc1S(=O)(=O)CCNCc1ccc(-c2ccc3ncnc(Nc4ccc(OCc5cccc(F)c5)c(Cl)c4)c3c2)o1 [Example 2]", "Observable": "pIC50", "Result value": "6.00 to 7.00"}
{"Compound": "O=S(=O)(CCNCc1ccc(-c2ccc3ncnc(Nc4ccc(OCc5cccc(F)c5)c(Cl)c4)c3c2)o1)c1ccccn1 [Example 5]", "Observable": "pIC50", "Result value": "5.00 to 6.00"}
{"Compound": "CCCS(=O)(=O)CCNCc1ccc(-c2ccc3ncnc(Nc4ccc(OCc5cccc(F)c5)c(Cl)c4)c3c2)o1 [Example 7]", "Observable": "pIC50", "Result value": "6.00 to 7.00"}
{"Compound": "C=CS(=O)(=O)CCOCc1ccc(-c2ccc3ncnc(Nc4ccc(OCc5cccc(F)c5)c(Cl)c4)c3c2)o1 [Example 14]", "Observable": "pIC50", "Result value": "6.00 to 7.00"}
{"Compound": "CC(C)S(=O)(=O)CCNCc1ccc(-c2ccc3ncnc(Nc4ccc(OCc5cccc(F)c5)c(Cl)c4)c3c2)o1 [Example 19]", "Observable": "pIC50", "Result value": "6.00 to 7.00"}
{"Compound": "CCCN(CCS(C)(=O)=O)Cc1ccc(-c2ccc3ncnc(Nc4ccc(OCc5cccc(F)c5)c(Cl)c4)c3c2)o1 [Example 18]", "Observable": "pIC50", "Result value": "> 7.00"}
{"Compound": "O=S(=O)(CCOCc1ccc(-c2ccc3ncnc(Nc4ccc(OCc5cccc(F)c5)c(Cl)c4)c3c2)o1)c1ccccc1 [Example 3]", "Observable": "pIC50", "Result value": "5.00 to 6.00"}
{"Compound": "CS(=O)(=O)CCN(CC#N)Cc1ccc(-c2ccc3ncnc(Nc4ccc(OCc5cccc(F)c5)c(Cl)c4)c3c2)o1 [Example 15]", "Observable": "pIC50", "Result value": "6.00 to 7.00"}
{"Compound": "CS(=O)(=O)CCNCCCc1ccc(-c2ccc3ncnc(Nc4ccc(OCc5ccccc5)c(Cl)c4)c3c2)o1 [Example 8]", "Observable": "pIC50", "Result value": "5.00 to 6.00"}
{"Compound": "CS(=O)(=O)CCOCc1ccc(-c2ccc3ncnc(Nc4ccc(OCc5cccc(F)c5)c(Cl)c4)c3c2)o1 [Example 13]", "Observable": "pIC50", "Result value": "6.00 to 7.00"}
